Target: recombinant DYRK1A kinase (Homo sapiens (Human))
Assay: DYRK1A kinase assay (Ser/Thr 18 peptide Z-lyte FRET assay)
Details: DYRK1A 0.25 μg/mL, ATP 15 μM, Ser/Thr peptide 18 4 μM; one hour at room temperature; 11-point dose-response, duplicate
Protocol: Representative compounds were screened using the assay procedure for DYRK1A kinase activity as described below. Each compound was dissolved in DMSO as a 10 mM stock and used to prepare compound source plates. This is a non-radioactive assay using fluorescence resonance energy transfer (FRET) between coumarin and fluorescein to detect kinase activity which is represented as a ratio of coumarin emission/fluorescein emission. […]
observation type: IC50

Cc1nc2ccc(-c3ccn4nc(N[C@@H]5CCN(C6COC6)CC5(F)F)nc(N)c34)nc2n1CCF [Compound 999]; 1.8 nM
CN1CC[C@@H](Nc2nc(N)c3c(-c4ccc5ncn(CC(F)(F)F)c5n4)ccn3n2)C(F)(F)C1 [Compound 994]; 1.2 nM
CNc1nc(N[C@H]2CCN(C3CC3)C[C@H]2F)nn2ccc(-c3ccc4nc(C)n(CC(F)F)c4n3)c12 [Compound 378]; 4.1 nM
CCN1CC[C@H](Nc2nc(NC)c3c(-c4ccc5nc(C)n(CC(F)F)c5n4)ccn3n2)[C@H](F)C1 [Compound 373]; 3.8 nM

###

Biological target: recombinant DYRK1A kinase (Homo sapiens (Human))
Assay: DYRK1A kinase assay (Ser/Thr 18 peptide Z-lyte FRET assay)
Settings: DYRK1A 0.25 μg/mL, ATP 15 μM, Ser/Thr peptide 18 4 μM; one hour at room temperature; 11-point dose-response, duplicate
Protocol: Representative compounds were screened using the assay procedure for DYRK1A kinase activity as described below. Each compound was dissolved in DMSO as a 10 mM stock and used to prepare compound source plates. This is a non-radioactive assay using fluorescence resonance energy transfer (FRET) between coumarin and fluorescein to detect kinase activity which is represented as a ratio of coumarin emission/fluorescein emission. […]
observation type: IC50 (nM)

CNc1nc(N[C@H]2CCN(C3COC3)C[C@H]2F)nn2ccc(-c3ccc4ncn(CC(F)F)c4n3)c12; 2
Cc1nc2ccc(-c3ccn4nc(N[C@@H]5CCN(C)CC5(F)F)nc(NC5COC5)c34)nc2n1CC(F)F; 3.8
Cc1nc2ccc(-c3ccn4nc(N[C@H]5CCN(C6COC6)C[C@H]5F)nc(N)c34)nc2n1CCF; 1.7
C[C@]1(O)CC[C@H](Nc2nc(N)c3c(-c4ccc5nnn(CC(F)F)c5n4)ccn3n2)CC1; 1.3

###

target: recombinant DYRK1A kinase (Homo sapiens (Human), UniProt Q13627); test: DYRK1A kinase assay (Ser/Thr 18 peptide Z-lyte FRET assay); conditions: DYRK1A 0.25 μg/mL, ATP 15 μM, Ser/Thr peptide 18 4 μM; one hour at room temperature; 11-point dose-response, duplicate
pIC50: −log10 of the molar value.
Returns condition met if the recorded pIC50 is greater than or equal to 9, and condition not met otherwise.

CNc1nc(N[C@H]2CCN(C)CC2(F)F)nn2ccc(-c3ccc4nc(C)n(CC(F)F)c4n3)c12; condition not met
CNc1nc(N[C@H]2CC[C@@H](OCCO)CC2)nn2ccc(-c3ccc4nc(C)n(CC(F)F)c4n3)c12; condition met
CC(=O)N1CC[C@@H](Nc2nc(N)c3c(-c4ccc5nc(C)n(CCF)c5n4)ccn3n2)C(F)(F)C1; condition not met

###

molecular target: recombinant DYRK1A kinase (Homo sapiens (Human)); experiment: DYRK1A kinase assay (Ser/Thr 18 peptide Z-lyte FRET assay); conditions: DYRK1A 0.25 μg/mL, ATP 15 μM, Ser/Thr peptide 18 4 μM; one hour at room temperature; 11-point dose-response, duplicate
observation type: IC50 (nM)

CCNc1nc(N[C@@H]2CCN(C)CC2(F)F)nn2ccc(-c3ccc4nc(C)n(CC(F)F)c4n3)c12; 3.6
CNc1nc(N[C@@H]2CN(C3COC3)CC2(F)F)nn2ccc(-c3ccc4nc(C)n(CC(F)F)c4n3)c12; 1.2
CNc1nc(N[C@H]2CCN(C3CC(F)(F)C3)C[C@H]2F)nn2ccc(-c3ccc4nc(C)n(CC(F)F)c4n3)c12; 2.2
CNc1nc(N[C@@H]2CCN(C)C[C@@H]2F)nn2ccc(-c3ccc4nc(C)n(CC(F)F)c4n3)c12; 1
CCN1CC[C@@H](Nc2nc(NC)c3c(-c4ccc5nc(C)n(CC(F)F)c5n4)ccn3n2)[C@@H](F)C1; 5
CNc1nc(N[C@@H]2CCN(C3COC3)CC2(F)F)nn2ccc(-c3ccc4ncn(CC(F)F)c4n3)c12 [Compound 1013]; 0.9
CNc1nc(N[C@@H]2CCN(C)CC2(F)F)nn2ccc(-c3ccc4ncn(CC(F)F)c4n3)c12; 1.4

###

Reported values of pIC50 for individual entries
Molecular target: recombinant DYRK1A kinase (Homo sapiens (Human))
Assay: DYRK1A kinase assay (Ser/Thr 18 peptide Z-lyte FRET assay)
Conditions: DYRK1A 0.25 μg/mL, ATP 15 μM, Ser/Thr peptide 18 4 μM; one hour at room temperature; 11-point dose-response, duplicate
Procedure: Representative compounds were screened using the assay procedure for DYRK1A kinase activity as described below. Each compound was dissolved in DMSO as a 10 mM stock and used to prepare compound source plates. This is a non-radioactive assay using fluorescence resonance energy transfer (FRET) between coumarin and fluorescein to detect kinase activity which is represented as a ratio of coumarin emission/fluorescein emission. […]
pIC50: −log10 of the molar value.
observation type: pIC50

Cc1nc2ccc(-c3ccn4nc(N[C@@H]5CCN(C6COC6)CC5(F)F)nc(N)c34)nc2n1CC(F)F [Compound 730]; 8.68
CC(=O)N1CC[C@H](Nc2nc(N)c3c(-c4ccc5nc(C)n(CC(F)(F)F)c5n4)ccn3n2)[C@H](F)C1 [Compound 777]; 8.92
CC(=O)N1CC[C@H](Nc2nc(N)c3c(-c4ccc5nc(C)n(CC(F)F)c5n4)ccn3n2)[C@H](F)C1 [Compound 715]; 9.40
CNc1nc(N[C@H]2CN(C3COC3)CC2(F)F)nn2ccc(-c3ccc4nc(C)n(CC(F)F)c4n3)c12 [Compound 367]; 8.19
CC(=O)N1CC[C@@H](Nc2nc(N)c3c(-c4ccc5ncn(CC(F)F)c5n4)ccn3n2)C(F)(F)C1 [Compound 992]; 9.15
CNc1nc(N[C@H]2CCN(C)C[C@H]2F)nn2ccc(-c3ccc4nc(C)n(CC(F)F)c4n3)c12 [Compound 204]; 9.10
CNc1nc(NC2CCN(C(C)=O)CC2)nn2ccc(-c3ccc4nc(C)n(CC(F)F)c4n3)c12 [Compound 202]; 8.74
CNc1nc(N[C@@H]2CN(C)CC2(F)F)nn2ccc(-c3ccc4nnn(CC(F)F)c4n3)c12 [Compound 1027]; 9.22
CNc1nc(N[C@@H]2CCN(C3COC3)CC2(F)F)nn2ccc(-c3ccc4nnn(CC(F)F)c4n3)c12 [Compound 480]; 8.89
CNc1nc(N[C@@H]2CCN(CCF)C[C@@H]2F)nn2ccc(-c3ccc4nc(C)n(CC(F)F)c4n3)c12 [Compound 374]; 8.66
CCN1CC[C@@H](Nc2nc(NC)c3c(-c4ccc5nc(C)n(CC(F)F)c5n4)ccn3n2)C(F)(F)C1 [Compound 383]; 8.46
CNc1nc(N[C@H]2CC[C@](C)(O)CC2)nn2ccc(-c3cnc4nc(C)n(CC(F)F)c4c3)c12 [Compound 171]; 8.10
Nc1nc(N[C@H]2CCN(C3COC3)C[C@H]2F)nn2ccc(-c3ccc4nnn(CC(F)F)c4n3)c12 [Compound 842]; 8.82
CNc1nc(N[C@H]2CC[C@@]3(CCO3)CC2)nn2ccc(-c3ccc4nc(C)n(CC(F)F)c4n3)c12 [Compound 226]; 8.70
CC(=O)N1C[C@H](F)[C@H](Nc2nc(N)c3c(-c4ccc5ncn(CC(F)F)c5n4)ccn3n2)C1 [Compound 987]; 9.10
C[C@]1(O)CC[C@H](Nc2nc(N)c3c(-c4ccc5ncn(CC(F)F)c5n4)ccn3n2)CC1 [Compound 986]; 9.15
CNc1nc(N[C@@H]2CCN(C(C)=O)CC2(F)F)nn2ccc(-c3ccc4nc(C)n(CC(F)(F)F)c4n3)c12 [Compound 1024]; 9.00

###

target: recombinant DYRK1A kinase (Homo sapiens (Human)); assay: DYRK1A kinase assay (Ser/Thr 18 peptide Z-lyte FRET assay); details: DYRK1A 0.25 μg/mL, ATP 15 μM, Ser/Thr peptide 18 4 μM; one hour at room temperature; 11-point dose-response, duplicate
pIC50: −log10 of the molar value.
observation type: pIC50

CNc1nc(N[C@@H]2CN(C)C[C@@H]2F)nn2ccc(-c3ccc4nc(C)n(CC(F)F)c4n3)c12 [Compound 198]; 9.22
CNc1nc(NC2CCC3(CC2)COC3)nn2ccc(-c3ccc4nc(C)n(CC(F)F)c4n3)c12 [Compound 225]; 9.10
CC(=O)N1CC[C@H](Nc2nc(N)c3c(-c4ccc5nc(C)n(CCF)c5n4)ccn3n2)[C@H](F)C1 [Compound 996]; 8.74
CNc1nc(N[C@@H]2CCN(C(C)=O)CC2(F)F)nn2ccc(-c3ccc4nc(C)n(CCF)c4n3)c12 [Compound 1021]; 8.89

Origin of the recorded values: patent US20240199649A1
